Taken from the MegaScale stability set (Tsuboyama et al. 2023).

B1: r16_88_TrROS_Hall (parent)
chain: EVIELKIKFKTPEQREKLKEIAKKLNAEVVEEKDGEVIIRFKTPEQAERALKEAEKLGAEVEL

Variants of: B1
protocol-summary: folding stability dG (cDNA display proteolysis); higher = more stable
condition-set: PBS, room temperature
parameter-measured: folding stability dG (kcal/mol)
One number for each entry, in kcal/mol.

// solved cases for folding stability dG follow
Input K56I , output reported folding stability dG.
4.52

Input K19T , output reported folding stability dG.
4.49

Input E16T , output reported folding stability dG.
4.36

Required: folding stability dG, one value per variant below.
1. L63T
2. E28H
3. L63N

4.24
4.43
4.3
